# EXPERIMENTAL SYSTEM: Interleukin-5 (Mus musculus)
# ASSAY INFO: Inhibition of IL-5 in mouse Y16 cells assessed as reduction in cell proliferation at 30 uM after 48 hrs by WST-1 assay relative to control
# Assay type: cell-based
OBSERVATION TYPE: inhibition (%)

In the examples that follow, each entry is paired with its recorded inhibition.
O=C1c2c(cccc2OCC2CCCCC2)CC1Cc1ccccc1O (stereo unspecified)
13
O=C1/C(=C/c2ccc(O)cc2)Cc2cccc(OCC3CCCCC3)c21
47
O=C1/C(=C/c2ccccc2)Cc2cccc(O)c21
40
O=C1c2c(cccc2OCC2CCCCC2)CC1Cc1ccc(O)cc1 (stereo unspecified)
100
COc1ccc(COc2cccc3c2C(=O)/C(=C/c2ccccc2)C3)cc1
5
O=C1c2c(cccc2OCCc2ccccc2)CC1Cc1ccc(O)cc1 (stereo unspecified)
59

A. COCOc1ccc(CC2Cc3cccc(OCC4CCCCC4)c3C2=O)cc1 (stereo unspecified)
B. COc1ccc(/C=C2\Cc3cccc(O)c3C2=O)cc1
IN: Could you point out whether the larger inhibition belongs to A or to B ? Let me know the label of the one you choose.
OUT: A
(A: 90%, B: 25%)

I. COc1ccc(CC2Cc3cccc(OCC4CCCCC4)c3C2=O)cc1 (stereo unspecified)
II. COCOc1ccc(/C=C2\Cc3cccc(OCC4CCCCC4)c3C2=O)cc1
III. COc1ccc(COc2cccc3c2C(=O)/C(=C/c2ccc(O)cc2)C3)cc1
IV. Cc1ccc(CC2Cc3cccc(OCC4CCCCC4)c3C2=O)cc1 (stereo unspecified)
IN: Order the records, beginning with the lowest inhibition and ending with the highest. Use the labels to give the requested order.
OUT: III, II, I, IV
(III: 0%, II: 23.5%, I: 44%, IV: 68%)

I. O=c1c(Cc2ccc(O)cc2)coc2cccc(OCC3CCCCC3)c12
II. O=C1c2c(cccc2OCCc2ccccc2)CC1Cc1cccc(O)c1 (stereo unspecified)
IN: I'm curious whether I or II has the smaller inhibition number. Which is it? Let me know the label of the one you choose.
OUT: II

I. COc1ccc(/C=C2\Cc3cccc(OCC4CCCCC4)c3C2=O)cc1
II. O=C1c2c(cccc2OCc2ccccc2)CC1Cc1ccc(O)cc1 (stereo unspecified)
III. O=C1c2c(O)cccc2CC1Cc1ccc(O)cc1 (stereo unspecified)
IN: Order the records, beginning with the lowest inhibition and ending with the highest. Use the labels to give the requested order.
OUT: I, III, II
(I: 5.6%, III: 30%, II: 70%)
